TESTED_ON: CYP26A1 (Homo sapiens (Human), UniProt O43174)
Sequence (O43174 whole entry): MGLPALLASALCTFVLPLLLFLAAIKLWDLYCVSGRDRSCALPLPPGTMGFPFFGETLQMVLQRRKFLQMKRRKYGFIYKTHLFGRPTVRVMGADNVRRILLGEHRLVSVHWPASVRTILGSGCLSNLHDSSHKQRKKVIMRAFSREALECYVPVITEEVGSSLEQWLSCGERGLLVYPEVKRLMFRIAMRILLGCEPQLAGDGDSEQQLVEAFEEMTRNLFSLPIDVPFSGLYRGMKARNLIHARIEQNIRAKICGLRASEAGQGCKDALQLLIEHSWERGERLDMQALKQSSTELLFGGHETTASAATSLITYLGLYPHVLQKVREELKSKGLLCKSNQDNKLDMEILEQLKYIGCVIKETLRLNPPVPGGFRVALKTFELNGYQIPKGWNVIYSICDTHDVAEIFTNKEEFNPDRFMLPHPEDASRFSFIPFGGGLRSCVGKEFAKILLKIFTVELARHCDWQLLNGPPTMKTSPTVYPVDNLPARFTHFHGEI
ASSAY_DETAILS: CYP26A1 inhibition assay (9-cis-4-OH-RA formation from 9-cis-RA, recombinant microsomes)
Format: biochemical
EXPERIMENTAL_CONDITIONS: Table 4, acidic compounds, unit inferred; read-out: CYP26A1 (IC50)
pIC50: −log10 of the molar value.
OBSERVABLE: pIC50

1. CC1(C)CCC(C)(C)c2cc(C3(c4ccc(C(=O)O)cc4)OCCO3)ccc21 [drawing 148]
2. CC1(C)CCC(C)(C)c2cc(C3(c4ccc5cc(C(=O)O)ccc5c4)SCCS3)ccc21 [drawing 152]
3. CC1(C)CCC(C)(C)c2cc(C3(c4ccc(C(=O)O)cc4)SCCS3)ccc21
4. CC1(C)CCC(C)(C)c2cc(C3(c4ccc5cc(C(=O)O)ccc5c4)OCCO3)ccc21
IN: Lab note: arrange the 4 compounds above from lowest to highest pIC50. Your reply should list the labels following the order given in the request.
OUT: 1, 3, 4, 2
